Values compiled from ChEMBL document CHEMBL4739716.

Target: Probable G-protein coupled receptor 139 (Homo sapiens, UniProt Q6DWJ6)
Sequence (Q6DWJ6 whole entry): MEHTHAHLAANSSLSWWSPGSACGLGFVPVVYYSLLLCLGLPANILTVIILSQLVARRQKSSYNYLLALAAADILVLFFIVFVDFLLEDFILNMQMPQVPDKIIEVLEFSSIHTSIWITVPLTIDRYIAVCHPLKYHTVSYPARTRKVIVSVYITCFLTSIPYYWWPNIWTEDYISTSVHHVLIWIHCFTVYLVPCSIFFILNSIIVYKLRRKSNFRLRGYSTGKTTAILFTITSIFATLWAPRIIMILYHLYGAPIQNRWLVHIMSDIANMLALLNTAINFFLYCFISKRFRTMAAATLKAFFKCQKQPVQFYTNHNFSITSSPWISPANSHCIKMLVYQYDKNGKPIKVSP
Experiment: Agonist activity at human GPR139 expressed in CHO-K1 cells assessed as induction of beta-arrestin 2 recruitment incubated for 90 mins by PathHunter assay
Format: cell-based
Conditions: cho-k1
Observable: EC50 (nM)

**Q:** Give recorded EC50. `COc1cccc2nn(CC(=O)N[C@@H](C)c3ccc(C)cc3)c(=O)n12`
**A:** 1

**Q:** Give recorded EC50. `C[C@H](NC(=O)Cn1nc2ccc(C3CC3)nn2c1=O)c1ccc(Cl)c(F)c1`
**A:** 1

**Q:** Give recorded EC50. `COc1ccnn2c(=O)n(CC(=O)N[C@@H](C)c3ccc(Cl)c(F)c3)nc12`
**A:** 1

**Q:** Give recorded EC50. `CNc1ccnn2c(=O)n(CC(=O)N[C@@H](C)c3ccc(OC(F)(F)F)cc3)nc12`
**A:** 10

**Q:** Give recorded EC50. `Cc1ccc([C@H](C)NC(=O)Cn2nc3ccccn3c2=O)cc1Cl`
**A:** 1

**Q:** Give recorded EC50. CC(C(=O)N[C@@H](C)c1ccc(Cl)c(F)c1)n1nc2cccnn2c1=O (stereo in doubt; I-6-2)
**A:** 10

**Q:** Give recorded EC50. `COc1cnn2c(=O)n(CC(=O)N[C@@H](C)c3ccc(Cl)c(F)c3)nc2c1`
**A:** 1

**Q:** Give recorded EC50. `C[C@H](NC(=O)Cn1nc2ccc(F)cn2c1=O)c1ccc(OC(F)(F)F)cc1`
**A:** 1

**Q:** Give recorded EC50. `Cc1ccc([C@H](C)NC(=O)Cn2nc3c(C)ccnn3c2=O)cc1F`
**A:** 10

**Q:** Give recorded EC50. `C[C@H](NC(=O)Cn1nc2c(NCC(F)F)ccnn2c1=O)c1ccc(OC(F)(F)F)cc1`
**A:** 1

(P) C[C@H](NC(=O)Cn1nc2ccccn2c1=O)c1ccc(Cl)c(F)c1
(Q) C[C@H](NC(=O)Cn1nc2cccnn2c1=O)c1ccc(Cl)c(Cl)c1
**Q:** Which value of EC50 is greater, the one for P or the one for Q ? Bench note: the answer is the label of the chosen record.
**A:** Q
(Q: 10 nM, P: 1 nM)

(P) COc1cccc2nn(CC(=O)N[C@@H](C)c3ccc(Cl)cc3)c(=O)n12
(Q) C[C@H](NC(=O)Cn1nc2ccc(C3CC3)nn2c1=O)c1ccc(OC(F)(F)F)cc1
**Q:** Hi there, can you help? I need to know whether P or Q has lower measured EC50. Bench note: the answer is the label of the chosen record.
**A:** P

###

Molecular target: Probable G-protein coupled receptor 139 (Rattus norvegicus, UniProt P0C0W8)
Sequence (P0C0W8 whole entry): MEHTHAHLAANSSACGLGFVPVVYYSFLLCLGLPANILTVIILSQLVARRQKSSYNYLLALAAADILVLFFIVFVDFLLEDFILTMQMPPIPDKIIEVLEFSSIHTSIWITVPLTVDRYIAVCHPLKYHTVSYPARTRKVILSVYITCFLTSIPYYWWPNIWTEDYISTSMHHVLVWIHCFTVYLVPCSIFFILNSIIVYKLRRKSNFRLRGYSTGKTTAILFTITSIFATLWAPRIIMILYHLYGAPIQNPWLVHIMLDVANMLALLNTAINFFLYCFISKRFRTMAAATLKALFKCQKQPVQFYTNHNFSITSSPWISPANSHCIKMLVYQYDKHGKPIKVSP
Experiment: Agonist activity at rat GPR139 expressed in CHO-K1 cells assessed as increase in calcium flux by calcium 5 dye based FLIPR assay
Format: cell-based
Observable: EC50

**Q:** Give recorded EC50. `Cc1cc(Cl)ccc1[C@H](C)NC(=O)Cn1nc2ncccn2c1=O`
**A:** ≥ 100 nM

Next:
**Q:** Give recorded EC50. `COc1ccn2c(=O)n(CC(=O)N[C@@H](C)c3ccc(Cl)c(F)c3)nc2c1`
**A:** < 1 nM

**Q:** Give recorded EC50. `Cc1cnn2c(=O)n(CC(=O)N[C@@H](C)c3ccc(Cl)c(F)c3)nc2c1C`
**A:** < 1 nM

**Q:** Give recorded EC50. `Cc1ccc([C@H](C)NC(=O)Cn2nc3ccc(C)cn3c2=O)cc1`
**A:** < 1 nM

**Q:** Give recorded EC50. `C[C@H](NC(=O)Cn1nc2ccccn2c1=O)c1cnc(C(F)(F)F)nc1`
**A:** ≥ 100 nM

**Q:** Give recorded EC50. `C[C@H](NC(=O)Cn1nc2c(N3CCCCC3)nccn2c1=O)c1ccc(Cl)c(F)c1`
**A:** < 1 nM

**Q:** Give recorded EC50. `COc1ccn2c(=O)n(CC(=O)N[C@@H](C)c3ccc(OC(F)(F)F)cc3)nc2c1`
**A:** < 1 nM

**Q:** Give recorded EC50. Cc1ccc([C@H](C)NC(=O)Cn2nc3c(C4CCNC4)cccn3c2=O)cc1 (stereo partly drawn)
**A:** ≥ 100 nM

###

Biological target: Probable G-protein coupled receptor 139 (Rattus norvegicus, UniProt P0C0W8)
Sequence (P0C0W8 whole entry): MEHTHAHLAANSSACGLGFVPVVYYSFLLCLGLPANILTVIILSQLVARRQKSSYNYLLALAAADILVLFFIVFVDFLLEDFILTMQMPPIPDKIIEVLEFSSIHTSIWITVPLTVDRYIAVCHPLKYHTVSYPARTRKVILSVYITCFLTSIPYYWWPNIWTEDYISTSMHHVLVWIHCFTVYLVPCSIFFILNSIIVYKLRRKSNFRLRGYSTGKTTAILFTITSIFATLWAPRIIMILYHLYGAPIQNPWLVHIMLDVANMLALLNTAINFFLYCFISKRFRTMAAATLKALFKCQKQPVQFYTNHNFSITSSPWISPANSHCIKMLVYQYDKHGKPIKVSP
Test: Agonist activity at rat GPR139 expressed in CHO-K1 cells assessed as increase in calcium flux by calcium 5 dye based FLIPR assay
Format: cell-based
Conditions: cho-k1
Observable: EC50 (nM)

(1) C[C@H](NC(=O)Cn1nc2cccnn2c1=O)c1ccc(OC(F)(F)F)cc1
(2) C[C@H](NC(=O)[C@@H](C)n1nc2ncccn2c1=O)c1ccc(Cl)c(F)c1
**Q:** Which value of EC50 is greater, the one for 1 or the one for 2 ? Bench note: the answer is the label of the chosen record.
**A:** 1

###

Target: Probable G-protein coupled receptor 139 (Homo sapiens)
Assay: Agonist activity at human GPR139 expressed in CHO-K1 cells assessed as increase in calcium flux by calcium 5 dye based FLIPR assay relative to JNJ63533054
Type: functional, cell-based
Conditions: filed as agonist
Observable: Emax

**Q:** # lookup: Probable G-protein coupled receptor 139 (Homo sapiens) Emax, key = `C[C@H](NC(=O)Cn1nc2c(N3CCNCC3)nccn2c1=O)c1ccc(Cl)c(F)c1`
**A:** > 80%

**Q:** # lookup: Probable G-protein coupled receptor 139 (Homo sapiens) Emax, key = `C[C@H](NC(=O)Cn1nc2c(C(F)F)nccn2c1=O)c1ccc(OC(F)(F)F)cc1`
**A:** > 80%

**Q:** # lookup: Probable G-protein coupled receptor 139 (Homo sapiens) Emax, key = `C[C@H](NC(=O)Cn1nc2ccccn2c1=O)c1ccc(F)cc1`
**A:** 50%

**Q:** # lookup: Probable G-protein coupled receptor 139 (Homo sapiens) Emax, key = `C[C@H](NC(=O)Cn1nc2ncc(F)cn2c1=O)c1ccc(Cl)c(F)c1`
**A:** > 80%

**Q:** # lookup: Probable G-protein coupled receptor 139 (Homo sapiens) Emax, key = `Cc1cnn2c(=O)n(CC(=O)N[C@@H](C)c3ccc(Cl)c(F)c3)nc2c1C`
**A:** > 80%

**Q:** # lookup: Probable G-protein coupled receptor 139 (Homo sapiens) Emax, key = `Cc1ccn2c(=O)n(CC(=O)N[C@@H](C)c3ccc(Cl)c(F)c3)nc2n1`
**A:** > 80%

**Q:** # lookup: Probable G-protein coupled receptor 139 (Homo sapiens) Emax, key = `C[C@H](NC(=O)Cn1nc2cc(N3CCC[C@H](O)C3)ccn2c1=O)c1ccc(OC(F)(F)F)cc1`
**A:** > 80%

**Q:** # lookup: Probable G-protein coupled receptor 139 (Homo sapiens) Emax, key = `C[C@H](NC(=O)Cn1nc2c(NC3COC3)ccnn2c1=O)c1ccc(OC(F)(F)F)cc1`
**A:** > 80%

Now examine the next entry.
**Q:** # lookup: Probable G-protein coupled receptor 139 (Homo sapiens) Emax, key = `COc1ccnn2c(=O)n(CC(=O)N[C@@H](C)c3ccc(Cl)c(F)c3)nc12`
**A:** > 80%

###

Entries annotated with measured EC50
Biological target: Probable G-protein coupled receptor 139 (Homo sapiens)
Experiment: Agonist activity at human GPR139 expressed in CHO-K1 cells assessed as increase in calcium flux by calcium 5 dye based FLIPR assay
Type: functional, cell-based

**Q:** # lookup: Probable G-protein coupled receptor 139 (Homo sapiens) EC50, key = `COc1ccc2nn(CC(=O)N[C@@H](C)c3ccc(Cl)c(F)c3)c(=O)n2n1`
**A:** < 1 nM

**Q:** # lookup: Probable G-protein coupled receptor 139 (Homo sapiens) EC50, key = `Cc1ccc([C@H](C)NC(=O)Cn2nc3c(NCC(F)F)cccn3c2=O)cc1`
**A:** < 1 nM

**Q:** # lookup: Probable G-protein coupled receptor 139 (Homo sapiens) EC50, key = `CNc1ccnn2c(=O)n(CC(=O)N[C@@H](C)c3ccc(Cl)c(F)c3)nc12`
**A:** < 1 nM

**Q:** # lookup: Probable G-protein coupled receptor 139 (Homo sapiens) EC50, key = `COc1ccc2nn(CC(=O)N[C@@H](C)c3ccc(OC(F)(F)F)cc3)c(=O)n2c1`
**A:** < 1 nM

**Q:** # lookup: Probable G-protein coupled receptor 139 (Homo sapiens) EC50, key = `C[C@@H](NC(=O)Cn1nc2ccccn2c1=O)c1ccc(OC(F)F)cc1`
**A:** ≥ 100 nM

**Q:** # lookup: Probable G-protein coupled receptor 139 (Homo sapiens) EC50, key = `C[C@H](NC(=O)Cn1nc2cccc(N3CCCCC3)n2c1=O)c1ccc(OC(F)(F)F)cc1`
**A:** < 1 nM

**Q:** # lookup: Probable G-protein coupled receptor 139 (Homo sapiens) EC50, key = `COc1ccn2c(=O)n(CC(=O)N[C@@H](C)c3ccc(OC(F)(F)F)cc3)nc2c1`
**A:** < 1 nM

**Q:** # lookup: Probable G-protein coupled receptor 139 (Homo sapiens) EC50, key = `COc1ccn2c(=O)n(CC(=O)N[C@@H](C)c3c(C)cc(C)cc3C)nc2c1`
**A:** ≥ 100 nM

Next:
**Q:** # lookup: Probable G-protein coupled receptor 139 (Homo sapiens) EC50, key = `C[C@H](NC(=O)Cn1nc2c(I)ccnn2c1=O)c1ccc(OC(F)(F)F)cc1`
**A:** < 1 nM
